The measured values listed here are drawn from ChEMBL document CHEMBL5625159.

- Study Target: Isocitrate dehydrogenase [NADP] cytoplasmic (Homo sapiens, UniProt O75874, R132H)
- Sequence (O75874 2-414 R132H limits assumed): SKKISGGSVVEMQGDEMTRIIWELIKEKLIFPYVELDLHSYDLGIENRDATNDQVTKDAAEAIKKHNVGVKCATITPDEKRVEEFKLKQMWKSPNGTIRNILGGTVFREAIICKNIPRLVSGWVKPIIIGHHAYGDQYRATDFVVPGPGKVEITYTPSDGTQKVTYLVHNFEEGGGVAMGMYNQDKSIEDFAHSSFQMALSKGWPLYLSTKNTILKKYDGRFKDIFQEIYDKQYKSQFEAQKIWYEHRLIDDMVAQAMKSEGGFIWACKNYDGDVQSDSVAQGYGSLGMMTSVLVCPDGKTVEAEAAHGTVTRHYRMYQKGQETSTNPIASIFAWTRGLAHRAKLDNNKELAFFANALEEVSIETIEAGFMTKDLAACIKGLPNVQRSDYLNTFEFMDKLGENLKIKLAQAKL
- Protocol Summary: Inhibition of N-terminal 6xHis-tagged IDH1 R132H mutant (unknown origin) expressed in Escherichia coli BL21 cells
Assay Readout: IC50 (nM)
Unit nM implied. Number only.

Consider the molecule shown here: CC(C)(O)CNc1nc(Nc2ccnc(C(F)(F)F)c2)nc(-c2cccc(C(F)(F)F)n2)n1 What is its recorded IC50?
677

---

- Study Target: Isocitrate dehydrogenase [NADP] cytoplasmic (Homo sapiens, UniProt O75874, R132C)
- Sequence (O75874 2-414 R132C limits assumed): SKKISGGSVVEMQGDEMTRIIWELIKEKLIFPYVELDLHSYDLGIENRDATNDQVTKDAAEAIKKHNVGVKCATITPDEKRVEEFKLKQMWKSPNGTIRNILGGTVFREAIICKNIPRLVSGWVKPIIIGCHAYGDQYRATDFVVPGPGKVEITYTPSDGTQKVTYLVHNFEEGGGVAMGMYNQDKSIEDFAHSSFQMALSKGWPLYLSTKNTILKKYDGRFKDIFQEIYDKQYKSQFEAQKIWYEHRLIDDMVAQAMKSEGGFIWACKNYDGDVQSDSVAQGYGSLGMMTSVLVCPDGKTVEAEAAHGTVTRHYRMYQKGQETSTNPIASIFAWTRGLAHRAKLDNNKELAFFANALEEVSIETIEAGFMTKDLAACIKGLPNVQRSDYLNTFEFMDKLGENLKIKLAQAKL
- Protocol Summary: Inhibition of IDH1 R132C mutant (unknown origin) expressed in HEK293T cells assessed as inhibition of 2-HG generation measured after 48 hrs by LC-MS/MS analysis
- Format: cell-based
Assay Readout: IC50 (µM)
Unit µM implied. Number only.

Item COC(=O)C1CCC2=C(C1=O)C(c1c[nH]c3ccccc13)Nc1ccccc1N2 (stereo unspecified) with Isocitrate dehydrogenase [NADP] cytoplasmic (Homo sapiens, UniProt O75874, R132C) - IC50?
65.4

---

- Study Target: Isocitrate dehydrogenase [NADP] cytoplasmic (Homo sapiens, UniProt O75874, R132H)
- Protocol Summary: Binding affinity to human recombinant IDH1 R132H mutant expressed in Escherichia coli BL21 (DE3) cells assessed as inhibition constant
Assay Readout: pKi
Scale: pKi equals -log10([C]), with [C] in mol/L.

Item C=CC(C)(C)c1cc(/C=C/C(=O)c2ccc(O)cc2)c(OC)cc1O with Isocitrate dehydrogenase [NADP] cytoplasmic (Homo sapiens, UniProt O75874, R132H) - pKi?
4.11

---

# maps each entry to its Kp
- Protocol Summary: Brain to plasma ratio in mouse at 50 mg/kg, iv
- Format: ADME, organism-based
- Particulars: brain and plasma, read-out: BPR
// keep it numeric: no unit symbol after the value

compound="Cc1cn(C(=O)c2c(-c3c(Cl)cc(Cl)cc3Cl)noc2C(C)(C)F)c2cccc(/C=C/C(=O)O)c12 [SAFUSIDENIB]" measured=0.4

For the next question, use this compound.
Consider the compound shown here: Cc1cc([C@H](C)Nc2nccc(N3C(=O)OC[C@@H]3[C@H](C)F)n2)ncc1-c1ccnc(C(F)(F)F)c1 What is its recorded Kp?
0.62

---

- Study Target: Isocitrate dehydrogenase [NADP], mitochondrial (Homo sapiens, UniProt P48735, R140Q)
- Sequence (P48735 40-452 R140Q limits assumed): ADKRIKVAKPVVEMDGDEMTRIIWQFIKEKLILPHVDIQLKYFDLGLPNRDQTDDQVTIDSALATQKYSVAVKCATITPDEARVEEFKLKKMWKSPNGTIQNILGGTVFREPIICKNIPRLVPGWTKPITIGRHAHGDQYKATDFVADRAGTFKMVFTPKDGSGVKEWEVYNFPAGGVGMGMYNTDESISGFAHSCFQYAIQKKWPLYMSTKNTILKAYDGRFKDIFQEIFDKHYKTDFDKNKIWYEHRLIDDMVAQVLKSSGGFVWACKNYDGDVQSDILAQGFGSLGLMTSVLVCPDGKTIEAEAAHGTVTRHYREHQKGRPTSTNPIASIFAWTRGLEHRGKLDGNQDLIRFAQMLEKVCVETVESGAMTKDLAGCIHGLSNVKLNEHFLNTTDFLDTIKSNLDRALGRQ
- Protocol Summary: Inhibition of N-terminal His-tagged human recombinant IDH2 R140Q mutant (41 to 452) expressed in baculovirus system incubated for 60 mins by size-exclusion chromatography analysis
# maps each entry to its IC50
Unit nM implied. Number only.

Consider the compound shown here: FC1(F)CC(Nc2nc(NC3CC(F)(F)C3)nc(-c3cccc(C(F)(F)F)n3)n2)C1 What is its recorded IC50?
13

Consider the compound shown here: FC1(F)CCC(Nc2nc(NC3CCC(F)(F)C3)nc(-c3cccc(C(F)(F)F)n3)n2)C1 (configuration not stated) What is its recorded IC50?
16

---

- Study Target: Isocitrate dehydrogenase [NADP] cytoplasmic (Homo sapiens, UniProt O75874, R132C)
- Protocol Summary: Inhibition of human […] IDH1 R132C mutant expressed in Escherichia coli BL21 (DE3) cells incubated for 60 mins by fluorescence based analysis
# maps each entry to its pIC50
Scale: pIC50 equals -log10([C]), with [C] in mol/L.

Consider the molecule shown here: CC(C)(F)c1onc(-c2c(Cl)cccc2Cl)c1C(=O)n1cc2c3c(cccc31)/C(=C/C(=O)O)CC2 What is its recorded pIC50?
6.83

Consider the molecule shown here: C=CC(=O)N1CCC(c2onc(-c3c(Cl)cccc3Cl)c2C(=O)n2ccc3c(/C=C/C(=O)O)cccc32)CC1 What is its recorded pIC50?
9.36

Consider the molecule shown here: Cc1cn(C(=O)c2c(-c3c(Cl)cc(Cl)cc3Cl)noc2C(C)(C)F)c2cccc(/C=C/C(=O)O)c12 [SAFUSIDENIB] What is its recorded pIC50?
7.96

Consider the molecule shown here: COC(C)(C)c1onc(-c2c(Cl)cc(Cl)cc2Cl)c1C(=O)n1ccc2c(/C=C/C(=O)O)cccc21 What is its recorded pIC50?
7.03

Consider the molecule shown here: CC(C)c1onc(-c2c(Cl)cccc2Cl)c1C(=O)c1cn(C)c2c(/C=C/C(=O)O)cccc12 What is its recorded pIC50?
6.89

---

- Tested on: HCT-116
- Protocol Summary: Antiproliferative activity against human HCT-116 cells assessed as reduction in cell growth by MTT assay
- Assay type: functional, cell-based
Assay Readout: IC50 (nM)
Unit nM implied. Number only.

Consider the compound shown here: Cc1cc([C@H](C)Nc2nccc(N3C(=O)OC[C@@H]3[C@H](C)F)n2)ncc1-c1ccnc(C(F)(F)F)c1 What is its recorded IC50?
24

---

- Study Target: Isocitrate dehydrogenase [NADP] cytoplasmic (Homo sapiens, UniProt O75874, R132H)
- Protocol Summary: Inhibition of human IDH1 R132H mutant
Assay Readout: IC50

Consider the following illustrative entries.
compound=C[C@H](Nc1nccc(N2CCCC2=O)n1)c1ccc(Oc2ccccc2)cc1 study_target="Isocitrate dehydrogenase [NADP] cytoplasmic (Homo sapiens, UniProt O75874, R132H)" measured="24.1 nM"
compound="C[C@H](Nc1nccc(N2CCC(N)C2=O)n1)c1nc(-c2ccc(Cl)cc2)cs1 (stereo partly drawn)" study_target="Isocitrate dehydrogenase [NADP] cytoplasmic (Homo sapiens, UniProt O75874, R132H)" measured="1680 nM"

Consider the compound shown here: C[C@H](Nc1nccc(N2CC[C@H](C)C2=O)n1)c1cc(-c2ccc(Cl)cc2)no1 What is its recorded IC50?
358 nM

---

- Study Target: Isocitrate dehydrogenase [NADP] cytoplasmic (Homo sapiens, UniProt O75874, R132C)
- Protocol Summary: Inhibition of C-terminal Hexahistidine-tagged human recombinant IDH1 R132C mutant expressed in Escherichia coli BL21 (DE3) cells assessed as NADPH consumption in presence of alpha KG incubated for 1 hr by MST assay
Assay Readout: IC50 (µM)
Unit µM implied. Number only.

compound=COc1ccc(C(=O)[C@@H](Cn2cncn2)[C@H](Sc2ccccc2)c2ccccc2)cc1 assay_readout=IC50 unit_abbreviation=µM measured=20.8
compound="CCN(CC)CCOc1ccc(/C(=C(\\Cl)c2ccccc2)c2ccccc2)cc1 [ZUCLOMIPHENE]" assay_readout=IC50 unit_abbreviation=µM measured=42.3

Item CSc1nn(-c2ccccc2C)c(-c2ccc3c(c2)OCCO3)c1-n1ccnc1 with Isocitrate dehydrogenase [NADP] cytoplasmic (Homo sapiens, UniProt O75874, R132C) - IC50?
11

Item O=C1c2ccccc2C(=O)C2C1C(=O)N(CCCn1cnnc1)[C@H]2c1ccc(F)cc1 (stereo not given in full) with Isocitrate dehydrogenase [NADP] cytoplasmic (Homo sapiens, UniProt O75874, R132C) - IC50?
8.86

Item O=C(NCc1ccc(C(F)(F)F)cc1)c1nnn(-c2ccccc2Cl)c1-c1cccnc1 with Isocitrate dehydrogenase [NADP] cytoplasmic (Homo sapiens, UniProt O75874, R132C) - IC50?
28.3

---

- System: TF-1
- Protocol Summary: Anticancer activity against human TF-1 cells assessed as cell growth inhibition
- Format: functional, cell-based
Assay Readout: IC50 (nM)
Unit nM implied. Number only.

Consider the compound shown here: Cc1cn(C(=O)c2c(-c3c(Cl)cc(Cl)cc3Cl)noc2C(C)(C)F)c2cccc(/C=C/C(=O)O)c12 [SAFUSIDENIB] What is its recorded IC50?
29

---

# maps each entry to its pIC50
- Study Target: Isocitrate dehydrogenase [NADP] cytoplasmic (Homo sapiens, UniProt O75874, R132H)
- Protocol Summary: Inhibition of IDH1 R132H mutant (unknown origin) expressed in Escherichia coli in presence of alpha-KG and NADPH by fluorescence based biochemical assay
Scale: pIC50 equals -log10([C]), with [C] in mol/L.

test_smiles=C[C@H](Nc1nc(N2C(=O)OC[C@@H]2[C@@H](C)O)c2cc[nH]c2n1)c1ccccc1F study_target="Isocitrate dehydrogenase [NADP] cytoplasmic (Homo sapiens, UniProt O75874, R132H)" measured=7.66

For the next question, use this compound.
Consider the compound shown here: COc1ccccc1[C@H](C)Nc1nc(N2C(=O)OC[C@@H]2[C@@H](C)O)c2cc[nH]c2n1 What is its recorded pIC50?
7.73

---

- Study Target: Isocitrate dehydrogenase [NADP] cytoplasmic (Homo sapiens, UniProt O75874, R132H)
- Protocol Summary: Inhibition of full length N-terminal GST-tagged human IDH1 R132H mutant expressed in Escherichia coli in presence of alpha-KG by fluorescence based biochemical assay
Assay Readout: pIC50
Scale: pIC50 equals -log10([C]), with [C] in mol/L.

Consider the following illustrative entries.
test_smiles=Cn1cc(C2=C(c3cn(CCCn4ccnc4)c4cc(Cl)ccc34)C(=O)NC2=O)c2cccnc21 measured=6.80
test_smiles=CC(C)n1nc(C2=C(c3cn(CCCn4ccnc4)c4cc(Cl)ccc34)C(=O)NC2=O)c2cccnc21 measured=7.30
test_smiles=Cn1cc(C2=C(c3c[nH]c4cc(Cl)ccc34)C(=O)NC2=O)c2cccnc21 measured=4.71

For the next question, use this molecule.
Consider the molecule shown here: CC(C)n1nc(C2=C(c3cn(CCCn4ccnc4)c4cc(Cl)ccc34)C(=O)NC2=O)c2ccccc21 What is its recorded pIC50?
5.81
